System: RPMI-8226 leukemia
Assay: NCI tumour cell line growth inhibition, 48 h
Consider the following molecules; for each one, report its TGI.

Cc1cc(O)c(C(c2cccnc2)c2c(O)cc(C)[nH]c2=O)c(=O)[nH]1; > 100 µM
C=CCNC(=S)N1c2ccccc2NC(=O)CC1C (centres undefined); > 100 µM
C[C@]12CCC(=O)C=C1CC[C@@H]1[C@@H]2CC[C@]2(C)C(=O)[C@H](n3ccnc3)C[C@@H]12; > 100 µM

--- query ---
Given the molecule CCCCCC(O)[C@H]1C(=O)C[C@@H](O[Si](C)(C)C(C)(C)C)[C@@H]1/C=C/CCOCc1ccccc1 (some centres undefined) , write its reported TGI.
> 44.8 µM

---

Test system: NCI-H522 lung
Assay: NCI tumour cell line growth inhibition, 48 h
Where a SMILES comes first, the peptide text is derived from it.
Measured quantity: TGI

Answered examples (8):
Nc1ccccc1N/C(=C\C(=O)C(Cl)(Cl)Cl)c1ccccc1; 35 µM
O=[N+]([O-])c1ccc2c(c1)c(N=NC(=S)NC1CCCCC1)c(O)n2CN1CCOCC1; 30.3 µM
NC(CNO)C(=O)O (configuration not stated); > 100 µM
CCOC(=O)c1sc2nc(SC)nc3c2c1N=CN3c1ccccc1Cl; > 100 µM
COc1ccc(-c2c(C#N)c(-c3ccc(C)cc3)n(NS(=O)(=O)c3ccccc3)c(=O)c2C#N)cc1; > 100 µM
NC1=C(Cl)C(=O)c2ccc(S(N)(=O)=O)cc2C1=O; 0.403 µM
COC(=O)c1ccc(N=NN(C)COc2ccc(C#N)cc2)cc1; > 100 µM
CCCN1CN(C(C(=O)N[C@@H]2C(=O)N3C2SC(C)(C)C3C(=O)O)c2ccccc2)CSC1=S (some centres not stated); 81.5 µM

Below are some compounds; for each one, tell me its TGI.
1. Clc1ccc(Nc2nc(Cl)c3[nH]cnc3n2)cc1Cl
2. Cc1cc2c(cc1Cl)SC(N/N=C(\N)c1ccc(Cl)cc1)=NS2(=O)=O

1. 56.7 µM
2. > 100 µM

Below are some compounds; for each one, tell me its TGI.
1. COC(=O)C1=CN=C(C(=O)OC)NN1
2. O=C(Nc1ccccc1)Nc1cccc(-n2cc(-c3ccncc3)c(-c3ccc(O)c(Cl)c3)n2)c1
3. O=C1CCCC2=C(N1)C(=O)C=CC2=O
4. CCOC(=O)c1nc2ccccc2nc1NCc1ccc(OC)cc1
5. COC(=O)C1C(O)CCC2CN3CCc4c([nH]c5cccc(OC)c45)C3CC21 (configuration not stated)

["> 100 µM", "6.73 µM", "34.8 µM", "> 100 µM", "> 100 µM"]

Below are some compounds; for each one, tell me its TGI.
1. COc1c2c(cc3c1C(O)N1CC[C@]34[C@H]3O[C@H]3[C@H](OC)C[C@@H]14)OCO2 (some centres not stated)
2. O=C(NC1CCC(=O)N1C(=O)OCc1ccccc1)OCc1ccccc1 (configuration not stated)
3. Nc1cc2c3c(cccc3c1)C(=O)N(c1ccc(OCCN3CCCCC3)cc1)C2=O
4. COc1ccc(NC(=O)C(=O)C2CNC(=O)NC2=O)c(OC)c1 (configuration not stated)
5. CC(C)CC(NC(=O)C(CC(C)C)NC(=O)C(Cc1cnc[nH]1)NC(=O)C(C)NC(=O)C(NC(=O)C(C)NC(=O)C(Cc1c[nH]c2ccccc12)NC(=O)C(CCC(=O)O)NC(=O)C(N)Cc1ccccc1)C(C)C)C(N)=O (configuration not stated) (H-FEWAVAHLL-NH2; configuration not given here)
6. NCC#CCNCCCN1CC1
7. CC(C)[Si](OC1=C(C(=O)Nc2ccccc2Cl)CCCCC1)(C(C)C)C(C)C

1. 96.7 µM
2. > 100 µM
3. 35.2 µM
4. > 100 µM
5. > 12.5 µM
6. > 100 µM
7. > 100 µM

Below are some compounds; for each one, tell me its TGI.
1. O=c1cc(-c2ccc(Cl)cc2)[nH]c2ncccc12
2. CN(/N=C/c1cccs1)c1ccc(Cl)cc1[N+](=O)[O-]
3. Cc1c2c(nn1C(=O)c1nn(-c3ccc(Cl)cc3)cc1O)-c1ccccc1CC2
4. O=C1/C(=C\C(Cl)=C/c2ccc([N+](=O)[O-])cc2)SC(=S)N1CCc1ccc(O)cc1
5. N#CC(c1ccccc1)N1CCCN(C(C#N)c2ccccc2)C1c1ccccc1O (configuration not stated)
6. CC(=O)NC(CCCCNC(=O)N(CCCl)N=O)C(=O)NCc1ccccc1 (configuration not stated)

> 100 µM
69.5 µM
0.717 µM
2.67 µM
> 100 µM
> 100 µM

Below are some compounds; for each one, tell me its TGI.
1. COC(=O)N/N=C(/CCN1CCCC1)CC(c1ccccc1)c1c(O)c2ccccc2oc1=O (configuration not stated)
2. C[C@]12CC[C@@H]3c4ccccc4CC[C@H]3[C@@H]1CC[C@@H]2O
3. CCc1ccc(Nc2cc(=O)[nH]c(SCc3ccccc3)n2)cc1
4. Cc1cccc(N=Nc2c(C)nn(C(=O)CC(=O)Nc3ccccc3)c2C)c1

> 100 µM
> 100 µM
> 100 µM
> 100 µM

// data source = PubChem BioAssay (NCI)
